Reference source: ChEMBL document CHEMBL3885861

Species on record: Rattus norvegicus
Assay: Open TG-GATES - Regimen: Daily Repeat
Assay type: toxicity, organism-based, Sprague-Dawley
Design: regimen Daily Repeat, gender Male, age 6 weeks
Conditions: in vivo, po, 100 mg/kg, […], tissue Plasma, route gavage, dose level Low, time 14 day
assay.metric: AST (IU/L)
Answer in IU/L, number only, no unit symbol.

| compound | quantitative.result |
| --- | --- |
| O=C(O)c1ccccc1Nc1ccccc1 [FENAMIC ACID] | 63.6 |
| CC(S)C(=O)NCC(=O)O (centres undefined) [TIOPRONIN] | 66.6 |
| CCCCNC(=O)NS(=O)(=O)c1ccc(C)cc1 [TOLBUTAMIDE] | 67.4 |

# evaluate next
Which value of AST has been reported for CC(=O)[C@@]1(O)CC[C@H]2[C@@H]3C=C(Cl)C4=CC(=O)CC[C@]4(C)[C@H]3CC[C@@]21C [CHLORMADINONE] in the records?
72.8

* * *

Organism: Rattus norvegicus
Experiment: Open TG-GATES - Regimen: Daily Repeat
Type: toxicity, organism-based, Sprague-Dawley
Parameters: regimen Daily Repeat, gender Male, age 6 weeks
Settings: in vivo, po, 0 mg/kg, 72 h, tissue Plasma, route gavage, dose level Control, time 3 day
assay.metric: log10(TBIL) (log10 of the value in mg/dL)
# log10 transformed; quantity=TBIL; unit=mg/dL

Some entries whose results are on file:
| compound | log10(TBIL) |
| --- | --- |
| CCO | -0.52 |
| Nc1ccc(Cc2ccc(N)cc2)cc1 | -1.42 |
| CCCCNC(=O)NS(=O)(=O)c1ccc(C)cc1 [TOLBUTAMIDE] | -1.18 |
| CCCCC1C(=O)N(c2ccccc2)N(c2ccccc2)C1=O | -0.52 |
| CCN(CC)C(=S)SSC(=S)N(CC)CC | -2.70 |
| O=c1ccc2ccccc2o1 | -0.52 |
| CC(=O)[C@@]1(O)CC[C@H]2[C@@H]3C=C(Cl)C4=CC(=O)CC[C@]4(C)[C@H]3CC[C@@]21C | -2.10 |
| COc1ccc([C@@H]2Sc3ccccc3N(CCN(C)C)C(=O)[C@@H]2OC(C)=O)cc1 | -1.49 |
| CN(C/C=C/C#CC(C)(C)C)Cc1cccc2ccccc12 | -0.70 |

Fill in: log10(TBIL) of CN(CCOc1ccc(CC2SC(=O)NC2=O)cc1)c1ccccn1.O=C(O)/C=C\C(=O)O (stereo not given) [ROSIGLITAZONE MALEATE] is ___
-1.40

* * *

Species on record: Rattus norvegicus
Test: Open TG-GATES - Regimen: Single
Type: toxicity, organism-based, Sprague-Dawley
Design: regimen Single, gender Male, age 6 weeks
Settings: in vivo, po, 0 mg/kg, 24 h, tissue Blood, route gavage, dose level Control
This listing pairs compounds with measured MCH.
Return type: number; implicit unit pg.

| compound | unit.symbol | MCH |
| --- | --- | --- |
| CCO | pg | 22.3 |
| COc1cc2ncnc(Nc3ccc(F)c(Cl)c3)c2cc1OCCCN1CCOCC1 | pg | 20.8 |

May I ask what MCH has been recorded for CC(S)C(=O)NCC(=O)O (stereo not given) ?
21.2

Which MCH value is on record for `CN(C/C=C/C#CC(C)(C)C)Cc1cccc2ccccc12` ?
21.6

Dear colleague, I am looking for the recorded MCH of the following compound: `CC(=O)[C@@]1(O)CC[C@H]2[C@@H]3C=C(Cl)C4=CC(=O)CC[C@]4(C)[C@H]3CC[C@@]21C`
20.5

* * *

Species on record: Rattus norvegicus
Assay: Open TG-GATES - Regimen: Daily Repeat
Assay type: toxicity, organism-based, Sprague-Dawley
Set-up: regimen Daily Repeat, gender Male, age 6 weeks
Settings: in vivo, po, 0 mg/kg, […], tissue Plasma, route gavage, dose level Control, time 28 day
assay.metric: TP (g/dL)
Respond with the bare value in g/dL.

For orientation, consider the following solved cases.
| compound | quantitative.result |
| --- | --- |
| CC(=O)[C@@]1(O)CC[C@H]2[C@@H]3C=C(Cl)C4=CC(=O)CC[C@]4(C)[C@H]3CC[C@@]21C [CHLORMADINONE] | 6.3 |
| COc1ccc([C@@H]2Sc3ccccc3N(CCN(C)C)C(=O)[C@@H]2OC(C)=O)cc1 [DILTIAZEM] | 6.2 |
| CCN(CC)C(=S)SSC(=S)N(CC)CC | 6 |
| CC(S)C(=O)NCC(=O)O (stereo not given) [TIOPRONIN] | 5.9 |
| O=c1ccc2ccccc2o1 [COUMARIN] | 6.4 |
| NS(=O)(=O)c1cc(C(=O)O)c(NCc2ccco2)cc1Cl [FUROSEMIDE] | 6.2 |
| Nc1ccc(Cc2ccc(N)cc2)cc1 | 6.4 |
| CCCCNC(=O)NS(=O)(=O)c1ccc(C)cc1 [TOLBUTAMIDE] | 6.3 |

May I ask what TP has been recorded for CCO [ALCOHOL] ?
6.1

Returns the measured TP for the input compound. Input: CN(CCOc1ccc(CC2SC(=O)NC2=O)cc1)c1ccccn1.O=C(O)/C=C\C(=O)O (stereo not given) [ROSIGLITAZONE MALEATE]
5.9

* * *

Organism: Rattus norvegicus
Assay: Open TG-GATES - Regimen: Single
Type: toxicity, organism-based, Sprague-Dawley
Parameters: regimen Single, gender Male, age 6 weeks
Settings: in vivo, po, 0 mg/kg, 6 h, tissue Plasma, route gavage, dose level Control
Where TG equals or exceeds 60 mg/dL, the correct label is y; where it does not, the label is n.

Example cases with answers are listed next.
| compound | class |
| --- | --- |
| CC(S)C(=O)NCC(=O)O (stereo unspecified) [TIOPRONIN] | y |
| O=c1ccc2ccccc2o1 [COUMARIN] | n |
| CN(C)CCCN1c2ccccc2Sc2ccc(Cl)cc21 [CHLORPROMAZINE] | n |

State whether the measured TG reaches 60 mg/dL, counting equality as reaching it, for NS(=O)(=O)c1cc(C(=O)O)c(NCc2ccco2)cc1Cl [FUROSEMIDE]
n

Tell me whether TG is at least 60 mg/dL here: O=C(O)c1ccccc1Nc1ccccc1 [FENAMIC ACID]
n

Hi, just wondering whether `CCN(CC)C(=S)SSC(=S)N(CC)CC` shows TG of 60 mg/dL or higher.
n

Check the entry CC(=O)[C@@]1(O)CC[C@H]2[C@@H]3C=C(Cl)C4=CC(=O)CC[C@]4(C)[C@H]3CC[C@@]21C [CHLORMADINONE] : does TG equal or exceed 60 mg/dL?
n

Does COc1ccc([C@@H]2Sc3ccccc3N(CCN(C)C)C(=O)[C@@H]2OC(C)=O)cc1 [DILTIAZEM] have a reported TG of at least 60 mg/dL?
n

Reported TG at or above 60 mg/dL? CN(CCOc1ccc(CC2SC(=O)NC2=O)cc1)c1ccccn1.O=C(O)/C=C\C(=O)O (stereo unspecified) [ROSIGLITAZONE MALEATE]
y

Entry CCO [ALCOHOL] : is its TG no less than 60 mg/dL?
n

* * *

Organism: Rattus norvegicus
Assay: Open TG-GATES - Regimen: Daily Repeat
Assay type: toxicity, organism-based, Sprague-Dawley
Set-up: regimen Daily Repeat, gender Male, age 6 weeks
Conditions: in vivo, po, 100 mg/kg, […], tissue Blood, route gavage, dose level Low, time 28 day
assay.metric: MCV (fL)
Response body: numeric value in fL, unit text excluded.

Solved cases below.
| compound | unit.symbol | MCV |
| --- | --- | --- |
| CCCCNC(=O)NS(=O)(=O)c1ccc(C)cc1 [TOLBUTAMIDE] | fL | 56.1 |
| CC(=O)[C@@]1(O)CC[C@H]2[C@@H]3C=C(Cl)C4=CC(=O)CC[C@]4(C)[C@H]3CC[C@@]21C | fL | 55.7 |
| O=C(O)c1ccccc1Nc1ccccc1 | fL | 56.2 |

Please turn your attention to the following entry.
What value of measured MCV is listed for CC(S)C(=O)NCC(=O)O (centres undefined) ?
55.6

* * *

Recorded RBC for the following compounds
Species on record: Rattus norvegicus
Assay: Open TG-GATES - Regimen: Daily Repeat
Assay type: toxicity, organism-based, Sprague-Dawley
Design: regimen Daily Repeat, gender Male, age 6 weeks
Details: in vivo, po, 100 mg/kg, […], tissue Blood, route gavage, dose level Low, time 14 day
Answers without a unit are incomplete; give the number and then its unit.

Solved entries:
| compound | assay.metric | result |
| --- | --- | --- |
| CC(S)C(=O)NCC(=O)O (centres undefined) | RBC | 686.2 x10_4/ul |
| CC(=O)[C@@]1(O)CC[C@H]2[C@@H]3C=C(Cl)C4=CC(=O)CC[C@]4(C)[C@H]3CC[C@@]21C | RBC | 762.8 x10_4/ul |
| O=C(O)c1ccccc1Nc1ccccc1 | RBC | 689.4 x10_4/ul |

We next turn to a different compound, shown below.
Query (compound): CCCCNC(=O)NS(=O)(=O)c1ccc(C)cc1 [TOLBUTAMIDE] ; field requested: RBC
726.6 x10_4/ul
